Record form. Attribute: viability at 1.9 µM. Fill in for each entry.
assay: in vitro; conditions: human, HEK293T cells
Description: Cytotoxicity against HEK293T cells assessed as cell viability at 1.9 uM by CellTiter-Glo assay relative to control
Non-standard residues stand in square brackets, D forms with d. Residues, ends and D or L forms follow the SMILES beside them. *: point of attachment. X1 = O=C(OCCCS*)Oc1ccc2nc(C3=N[C@@H](C(=O)O)CS3)sc2c1; Mpa = O=C(O)CCS
Answers are plain numbers, in %.

>  <MOLECULE>
CC(C)C[C@H](NC(=O)[C@H](CCCCN)NC(=O)[C@H](Cc1c[nH]c2ccccc12)NC(=O)[C@H](CCCNC(=N)N)NC(=O)CCSSCCCOC(=O)Oc1ccc2nc(C3=N[C@@H](C(=O)O)CS3)sc2c1)C(=O)N[C@@H](Cc1ccccc1)C(=O)N[C@@H](CC(N)=O)C(=O)N[C@@H](CCCCN)C(=O)N[C@@H](CCC(N)=O)C(=O)N[C@@H](CCC(=O)O)C(=O)N[C@@H](Cc1c[nH]c2ccccc12)C(N)=O ([Mpa](X1)RWKLFNKQEW-NH2)

>  <REPORTED_ENDPOINT>
viability at 1.9 µM

>  <UNIT_SYMBOL>
%

>  <RESULT_NUMBER>
92.3

$$$$

Continue with the molecule presented below.
The measured viability at 1.9 µM associated with CC(C)C[C@H](NC(=O)[C@H](CCCCN)NC(=O)CCSSCCCOC(=O)Oc1ccc2nc(C3=N[C@@H](C(=O)O)CS3)sc2c1)C(=O)N[C@@H](Cc1ccccc1)C(=O)N[C@@H](CC(N)=O)C(=O)N[C@@H](CCCCN)C(=O)N[C@@H](CCC(N)=O)C(=O)N[C@@H](CCC(=O)O)C(=O)N[C@@H](Cc1c[nH]c2ccccc12)C(=O)N[C@H](C(=O)N[C@@H](CC(N)=O)C(N)=O)[C@@H](C)O ([Mpa](X1)KLFNKQEWTN-NH2) reads 93

====

assay: in vitro; details: human, HEK293T cells
Non-standard residues stand in square brackets, D forms with d. Residues, ends and D or L forms follow the SMILES beside them. *: point of attachment. X1 = O=C(OCCCS*)Oc1ccc2nc(C3=N[C@@H](C(=O)O)CS3)sc2c1; Mpa = O=C(O)CCS
Record form. Attribute: viability at 1.9 µM. Fill in for each entry.
One number for each entry, in %.

>  <COMPOUND>
CC(C)C[C@H](NC(=O)CCSSCCCOC(=O)Oc1ccc2nc(C3=N[C@@H](C(=O)O)CS3)sc2c1)C(=O)N[C@@H](CCCCN)C(=O)N[C@H](C(=O)N[C@@H](CCCNC(=N)N)C(=O)N[C@H](C(=O)N[C@@H](CC(C)C)C(=O)N[C@@H](CCCCN)C(=O)N[C@@H](CCCNC(=N)N)C(=O)N[C@@H](Cc1c[nH]c2ccccc12)C(=O)N[C@@H](CCCCN)C(N)=O)C(C)C)[C@@H](C)O ([Mpa](X1)LKTRVLKRWK-NH2)

>  <REPORTED_ENDPOINT>
viability at 1.9 µM

>  <RESULT_NUMBER>
88.5

$$$$

Continue with the compound presented below.
The measured viability at 1.9 µM associated with CC(C)C[C@H](NC(=O)[C@H](CCCCN)NC(=O)[C@H](Cc1c[nH]c2ccccc12)NC(=O)[C@H](CCCNC(=N)N)NC(=O)[C@H](CCCCN)NC(=O)CCSSCCCOC(=O)Oc1ccc2nc(C3=N[C@@H](C(=O)O)CS3)sc2c1)C(=O)N[C@@H](Cc1ccccc1)C(=O)N[C@@H](CC(N)=O)C(=O)N[C@@H](CCCCN)C(=O)N[C@@H](CCC(N)=O)C(=O)N[C@@H](CCC(=O)O)C(N)=O ([Mpa](X1)KRWKLFNKQE-NH2) reads 95.8
